- Test system: IGROV1 ovarian
- assay_remarks: NCI tumour cell line growth inhibition, 48 h; in the data active means GI50 below about 0.43 µM; inactive means the rest
Write down one outcome, taken from active, inactive

Some entries whose results are on file:
{"molecule": "Cc1nc2sc(C(=O)Nc3cccc(Cl)c3C)c(N)c2cc1C(O)c1ccccc1 (stereo not drawn)", "group_label": "active"}
{"molecule": "C=CC(=O)OCCCS(=O)(=O)[O-].C=CC(=O)OCCCS(=O)(=O)[O-].NC1CCCCC1N.[Pt+4]", "group_label": "inactive"}
{"molecule": "COc1ccc(C#CC2=C(Br)C(=O)OC2)cc1", "group_label": "inactive"}
{"molecule": "CCN(CC)CCOc1ccccc1-n1c(C)ccc1-c1ccccc1", "group_label": "inactive"}
{"molecule": "CCC1C[N+]2=C(c3cc(OC)c(OC)cc3CC2)c2c1cc1n2CCc2cc(OC)c(OC)cc2-1 (stereo not drawn)", "group_label": "inactive"}

Request: What call does the record list for CC(C)CCCC(C)[C@H]1CCC2C3CC=C4C[C@@H](OC(=O)CC(CC(=O)[O-])C(=O)[O-])CC[C@]4(C)C3CC[C@@]21C.N.N.[Pt+4] (stereo partly drawn) ?
Result: inactive

Request: Thanks! And O=C1c2ccccc2-c2c1c1ccc3ccccc3c1n2-c1ccccc1 ?
Result: inactive

Request: Thanks! And O=C1c2ccccc2-c2c1c1ccc([N+](=O)[O-])cc1c(=O)n2CCN1CCOCC1 ?
Result: inactive

Request: Thanks! And CN1CCN(c2ccc(NC(=O)c3cncnc3Nc3ccc4c(ccn4Cc4cccc(F)c4)c3)cc2)CC1 ?
Result: inactive

Request: Thanks! And COC(=O)[C@]12CC[C@@H](C)[C@H](C)[C@@H]1C1=CC[C@@H]3[C@@]4(C)C(C=O)=C[C@@](C)(COC(=O)c5ccco5)C4=CC[C@@]3(C)[C@]1(C)CC2 ?
Result: inactive

Request: Thanks! And C=CC(=O)N1CCC(CNc2ncnc(N)c2-c2ccc(Oc3ccccc3)cc2)CC1 ?
Result: inactive

Request: Thanks! And COc1cc2c3c(n(CCCN=[N+]=[N-])c(=O)c2cc1OC)-c1ccc(NC(C)=O)cc1C3=O ?
Result: inactive

Request: Thanks! And COc1ccccc1CNC(=O)/C=C/c1ccc(O)c(O)c1 ?
Result: inactive

Request: Thanks! And NC1=C(/C(N)=N/O)C(c2ccccc2)c2ccc3ccccc3c2O1 (stereo not drawn) ?
Result: inactive
